MEASURED_TARGET: mitochondrial RNA polymerase (POLRMT) (Mus musculus, UniProt Q8BKF1)
Sequence (Q8BKF1 42-1207): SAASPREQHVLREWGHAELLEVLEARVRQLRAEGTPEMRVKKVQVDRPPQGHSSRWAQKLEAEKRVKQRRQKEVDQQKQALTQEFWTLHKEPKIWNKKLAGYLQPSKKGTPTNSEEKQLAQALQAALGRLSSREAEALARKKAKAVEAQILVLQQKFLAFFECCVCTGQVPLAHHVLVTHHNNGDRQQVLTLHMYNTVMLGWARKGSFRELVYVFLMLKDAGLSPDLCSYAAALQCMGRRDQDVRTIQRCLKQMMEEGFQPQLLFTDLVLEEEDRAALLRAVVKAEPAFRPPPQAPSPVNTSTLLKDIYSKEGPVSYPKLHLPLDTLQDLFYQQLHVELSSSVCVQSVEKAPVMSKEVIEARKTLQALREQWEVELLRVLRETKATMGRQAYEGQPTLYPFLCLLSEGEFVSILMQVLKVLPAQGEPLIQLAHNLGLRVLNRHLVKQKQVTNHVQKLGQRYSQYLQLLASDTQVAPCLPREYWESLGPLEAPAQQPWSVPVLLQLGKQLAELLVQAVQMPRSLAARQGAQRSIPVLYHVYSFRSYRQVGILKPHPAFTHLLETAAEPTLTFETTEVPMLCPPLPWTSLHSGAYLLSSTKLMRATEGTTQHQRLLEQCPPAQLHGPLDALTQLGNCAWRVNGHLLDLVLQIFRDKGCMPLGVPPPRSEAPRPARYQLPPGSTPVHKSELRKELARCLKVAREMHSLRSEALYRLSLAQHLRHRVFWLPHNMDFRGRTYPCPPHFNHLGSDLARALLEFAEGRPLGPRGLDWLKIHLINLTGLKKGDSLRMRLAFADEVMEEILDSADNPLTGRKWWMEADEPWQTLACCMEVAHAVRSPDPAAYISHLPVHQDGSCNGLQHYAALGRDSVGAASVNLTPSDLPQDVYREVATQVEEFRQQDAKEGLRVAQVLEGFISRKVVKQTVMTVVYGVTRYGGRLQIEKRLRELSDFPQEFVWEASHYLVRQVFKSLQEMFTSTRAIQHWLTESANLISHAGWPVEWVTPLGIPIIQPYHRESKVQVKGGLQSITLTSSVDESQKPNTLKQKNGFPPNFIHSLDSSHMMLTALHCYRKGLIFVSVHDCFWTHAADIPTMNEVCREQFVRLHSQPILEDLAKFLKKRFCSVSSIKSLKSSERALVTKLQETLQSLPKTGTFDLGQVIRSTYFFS
ENDPOINT: IC50

// `C[C@@H](Oc1ccc2c(-c3ccc(F)cc3Cl)ccnc2c1)C(=O)N1CCCCC1` : IC50 value = 20 to 100 nM

Entry under test: `Cc1ccccc1-c1ccnc2cc(O[C@H](C)C(=O)N3CCC[C@H](C(=O)O)C3)ccc12` . Its IC50 was < 20 nM

Form field IC50, entry `C[C@@H](Oc1ccc2c(-c3ccc(F)cc3Cl)ccnc2c1)C(=O)N1CCC[C@@H](S(N)(=O)=O)C1` : 100 to 1000 nM

Lab note: measured IC50 of `C[C@@H](Oc1ccc2c(-c3ccc(F)cc3Cl)ccnc2c1)C(=O)N1CCC[C@@](C)(C(=O)O)C1` was 20 to 100 nM

Reported IC50 for CC1CCCCN1C(=O)[C@@H](C)Oc1ccc2c(-c3ccc(F)cc3Cl)ccnc2c1 (mixture of isomers) was 20 to 100 nM

compound `C[C@@H](Oc1ccc2c(-c3ccccc3Cl)cc(Cl)nc2c1)C(=O)N1CCCCC1` , IC50 observed: 1000 to 10000 nM

Query `Cc1cc(F)cc(C)c1-c1ccnc2cc(O[C@H](C)C(=O)N3CCCC[C@H]3C)ccc12` yields IC50 of < 20 nM

Reported IC50 of `C[C@@H](Oc1ccc2c(-c3ccc(F)cc3Cl)ccnc2c1)C(=O)N1CCC2(CC1)COC2` : 100 to 1000 nM

Value of measured IC50 for the entry `Cc1cc(-c2ccccc2C)c2ccc(O[C@H](C)C(=O)N3CCC[C@H](C(=O)OC(C)(C)C)C3)cc2n1` : 1000 to 10000 nM

// IC50 value for `C[C@@H](Oc1ccc2c(-c3c(Cl)cc(F)cc3Cl)ccnc2c1)C(=O)N1CCC2(CC1)COC2` : 100 to 1000 nM

Query `C[C@H](Oc1ccc2c(-c3ccc(F)cc3Cl)ccnc2n1)C(=O)N1CCC[C@H](C(=O)O)C1` yields IC50 of 1000 to 10000 nM

So, `C[C@@H](Oc1ccc2c(-c3ccc(F)cc3Cl)ccnc2c1)C(=O)N1CC[C@H](CC(=O)O)C1` ? Its IC50 was 100 to 1000 nM

Given item `C[C@@H](Oc1ccc2c(-c3ccccc3C#N)ccnc2c1)C(=O)N1CCC[C@H](CC(=O)O)C1` , the value recorded as its IC50 is 100 to 1000 nM

The compound listed as COC(=O)C1CC(NC(=O)[C@@H](C)Oc2ccc3c(-c4ccccc4Cl)cc(Cl)nc3c2)C1 (some centres unmarked) has a reported IC50 of 1000 to 10000 nM

Record summary for `CC(=O)N(O)[C@H]1CCCN(C(=O)[C@@H](C)Oc2ccc3c(-c4ccc(F)cc4Cl)ccnc3c2)C1` : reported IC50 = 100 to 1000 nM

For reference, reported IC50 for `Cc1cc(-c2c(C)cccc2C)c2ccc(O[C@H](C)C(=O)N3CCC[C@H](CC(=O)O)C3)cc2n1` stands at 100 to 1000 nM

The compound `CCOC(=O)c1ccc(NC(=O)[C@@H](C)Oc2ccc3c(-c4ccc(F)cc4Cl)ccnc3c2)cc1` showed IC50 equal to 100 to 1000 nM

Summary for this compound, COC(=O)C1CC(NC(=O)[C@@H](C)Oc2ccc3c(-c4ccc(F)cc4Cl)ccnc3c2)C1 (some centres unmarked) : IC50 is 100 to 1000 nM

Entry under test: `Cc1cc(F)cc(C)c1-c1ccnc2cc(O[C@H](C)C(=O)N3CCC[C@@](C)(C(=O)O)C3)ccc12` . Its IC50 was < 20 nM

The reported value for `CC(C)NC(=O)[C@@H](C)Oc1ccc2c(-c3ccc(F)cc3Cl)ccnc2c1` in terms of IC50 is 100 to 1000 nM

Query `Cc1ccsc1-c1ccnc2cc(O[C@H](C)C(=O)N3CCC[C@H](CC(=O)O)C3)ccc12` yields IC50 of 1000 to 10000 nM

Sure, the documented IC50 for Cc1cccc(C)c1-c1ccnc2cc(O[C@H](C)C(=O)N3CCCC(S(N)(=O)=O)C3)ccc12 (mixture of isomers) is < 20 nM

Reported IC50 for `C[C@@H](Oc1ccc2c(-c3c(Cl)cc(F)cc3Cl)ccnc2n1)C(=O)N1CCC[C@H](CC(=O)O)C1` was 20 to 100 nM

The compound `C[C@@H](Oc1ccc2c(-c3c(Cl)cc(F)cc3Cl)ccnc2c1)C(=O)N1CCC[C@@](C)(C(=O)O)C1` showed IC50 equal to < 20 nM

Query `C[C@@H](Oc1ccc2c(-c3ccc(F)cc3Cl)ccnc2c1)C(=O)N1CC[C@H](C(=O)O)C1` yields IC50 of 20 to 100 nM

Note to self: IC50 recorded for `C[C@@H](Oc1ccc2c(-c3ccc(F)cc3Cl)cc(Cl)nc2c1)C(=O)N1CCC[C@H](C(=O)O)C1` was 100 to 1000 nM

IC50 measured on `C[C@@H](Oc1ccc2c(-c3ccc(F)cc3Cl)ccnc2c1)C(=O)Nc1ccccn1` = 100 to 1000 nM

# IC50 of `C[C@@H](Oc1ccc2c(-c3ccccc3F)ccnc2c1)C(=O)N1CCC[C@H](CC(=O)O)C1` = 1000 to 10000 nM

The reported IC50 of the compound `Cc1ccccc1-c1cc(Cl)nc2cc(O[C@H](C)C(=O)OC(C)(C)C)ccc12` was 100 to 1000 nM
